assay target: GABA-A receptor; anion channel (Bos taurus) (UniProt P10063+P08220+P20237+P08219+P10064+P22300)
assay procedure: In vitro inhibition of [3H]- flunitrazepam binding to GABA-A central benzodiazepine receptor of bovine cortical membranes at 10 uM
recorded metric: inhibition (%)
# value in %; strip the unit string

// below: answered molecules
So for COc1ccc(CNC(=O)C(=O)c2c[nH]c3ccc(Cl)cc23)cc1OC , the logged inhibition turned out to be 94

So for COc1cc(CNC(=O)C(=O)c2c[nH]c3ccc([N+](=O)[O-])cc23)ccc1O , the logged inhibition turned out to be 100

So for O=C(NCc1cccc(Cl)c1)C(=O)c1c[nH]c2ccc(Cl)cc12 , the logged inhibition turned out to be 14

So for O=C(NCc1ccc(Cl)cc1)C(=O)c1c[nH]c2ccc([N+](=O)[O-])cc12 , the logged inhibition turned out to be 2

So for O=C(NCc1ccc(O)cc1)C(=O)c1c[nH]c2ccc(Cl)cc12 , the logged inhibition turned out to be 98

---
So for O=C(NCc1ccccc1F)C(=O)c1c[nH]c2ccc([N+](=O)[O-])cc12 , the logged inhibition turned out to be 42

So for Cn1cc(C(=O)C(=O)NCc2ccc(Cl)cc2)c2ccccc21 , the logged inhibition turned out to be 86

So for O=C(NCc1ccc(O)c(O)c1)C(=O)c1c[nH]c2ccccc12 , the logged inhibition turned out to be 95

So for COc1ccc(CNC(=O)C(=O)c2c[nH]c3ccccc23)cc1OC , the logged inhibition turned out to be 99

So for O=C(NCc1ccc(O)c(O)c1)C(=O)c1c[nH]c2ccc([N+](=O)[O-])cc12 , the logged inhibition turned out to be 98

So for O=C(NCc1ccccc1F)C(=O)c1c[nH]c2ccccc12 , the logged inhibition turned out to be 94

So for COc1cc(CNC(=O)C(=O)c2c[nH]c3ccccc23)ccc1O , the logged inhibition turned out to be 96

So for O=C(NCc1ccc(O)cc1)C(=O)c1c[nH]c2ccccc12 , the logged inhibition turned out to be 96

So for O=C(NCc1ccc(Cl)cc1)C(=O)c1c[nH]c2ccccc12 , the logged inhibition turned out to be 99

So for COc1cccc(CNC(=O)C(=O)c2c[nH]c3ccc(Cl)cc23)c1 , the logged inhibition turned out to be 89

So for O=C(NCc1cccc(Cl)c1)C(=O)c1c[nH]c2ccccc12 , the logged inhibition turned out to be 96

So for COc1cc(CNC(=O)C(=O)c2c[nH]c3ccc(Cl)cc23)ccc1O , the logged inhibition turned out to be 99

So for COc1ccc(CNC(=O)C(=O)c2c[nH]c3ccc([N+](=O)[O-])cc23)cc1OC , the logged inhibition turned out to be 97

So for O=C(NCc1ccccc1F)C(=O)c1c[nH]c2ccc(Cl)cc12 , the logged inhibition turned out to be 39

So for COc1ccc(CNC(=O)C(=O)c2cn(C)c3ccccc23)cc1OC , the logged inhibition turned out to be 70

So for O=C(NCc1ccc(F)cc1)C(=O)c1c[nH]c2ccc(Cl)cc12 , the logged inhibition turned out to be 21

So for O=C(NCc1cccc(Cl)c1)C(=O)c1c[nH]c2ccc([N+](=O)[O-])cc12 , the logged inhibition turned out to be 0

So for O=C(NCc1ccccc1Cl)C(=O)c1c[nH]c2ccc([N+](=O)[O-])cc12 , the logged inhibition turned out to be 48

###

assay target: GABA-A receptor; anion channel (Bos taurus) (UniProt P10063+P08220+P20237+P08219+P10064+P22300)
assay procedure: Gamma AminoButyric Acid(GABA) ratio is the Ki without GABA / Ki with GABA
Type: protein-complex assay
# Lookup of reported GABA ratio keyed by entry
Give a plain numeric answer without units written out.

So for COc1cc(CNC(=O)C(=O)c2c[nH]c3ccccc23)ccc1O , the logged GABA ratio turned out to be 1

So for O=C(Nc1ccc(O)cc1)C(=O)c1c[nH]c2ccc([N+](=O)[O-])cc12 , the logged GABA ratio turned out to be 1

So for COc1ccc(CNC(=O)C(=O)c2cn(C)c3ccccc23)cc1OC , the logged GABA ratio turned out to be 0.88

Continue with the compound presented below.
So for COc1ccc(CNC(=O)C(=O)c2c[nH]c3ccccc23)cc1 , the logged GABA ratio turned out to be 1
